The measurements presented in this section are drawn from ChEMBL document CHEMBL5325502.

Consider compounds characterized by their pIC50 with Protein arginine N-methyltransferase 1 (Homo sapiens).
pIC50: −log10 of the molar value.
MEASURED METRIC: pIC50

[[record]]
query_smiles = "CNCCN(C)Cc1sc(-c2ccc(N3CCOCC3)cc2)nc1-c1ccc(OC)cc1"
measured_metric = "pIC50"
numeric_value = 5.15

[[record]]
query_smiles = "CNCCN(C)Cc1sc(-c2ccc(OC)cc2)nc1-c1ccc(OC)cc1.Cl"
measured_metric = "pIC50"
numeric_value = 4.93


---

target: Protein arginine N-methyltransferase 1 (Homo sapiens); experiment: Displacement of [3H]SAM from PRMT1 (unknown origin) at 10 uM preincubated for 15 mins followed by [3H]SAM addition measured after 60 mins by radiometric/luminescence based assay relative to control; settings: time 75.0 min
Sequence (Q99873 whole entry, looked up): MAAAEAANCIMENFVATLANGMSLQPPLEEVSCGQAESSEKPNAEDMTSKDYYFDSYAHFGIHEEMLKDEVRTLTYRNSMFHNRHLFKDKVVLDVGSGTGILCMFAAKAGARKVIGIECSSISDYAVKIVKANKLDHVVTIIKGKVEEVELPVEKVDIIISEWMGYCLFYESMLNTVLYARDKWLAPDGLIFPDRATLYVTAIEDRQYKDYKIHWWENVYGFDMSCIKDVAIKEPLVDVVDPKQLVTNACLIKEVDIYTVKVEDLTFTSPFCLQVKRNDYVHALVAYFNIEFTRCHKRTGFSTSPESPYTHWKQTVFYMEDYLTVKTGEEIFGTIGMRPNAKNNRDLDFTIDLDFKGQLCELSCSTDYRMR
So basically: inhibition at 30% or higher? That is 1 (yes). Lower than 30%? That is 0 (no).

[[record]]
query_smiles = "CNCCNCc1sc(-c2ccc(OC)cc2)nc1-c1ccc(OC)cc1"
target_under_test = "Protein arginine N-methyltransferase 1 (Homo sapiens)"
class_name = "0 (no)"

[[record]]
query_smiles = "CNCCN(C)Cc1sc(-c2cccc(OC(F)(F)F)c2)nc1-c1cccc(OC)c1"
target_under_test = "Protein arginine N-methyltransferase 1 (Homo sapiens)"
class_name = "1 (yes)"

[[record]]
query_smiles = "CNCCN(C)Cc1sc(-c2ccc(N3CCOCC3)cc2)nc1-c1ccc(OC)cc1"
target_under_test = "Protein arginine N-methyltransferase 1 (Homo sapiens)"
class_name = "1 (yes)"

[[record]]
query_smiles = "CNCCN(C)Cc1sc(-c2ccc(OC(F)(F)F)cc2)nc1-c1cccc(OC)c1"
target_under_test = "Protein arginine N-methyltransferase 1 (Homo sapiens)"
class_name = "1 (yes)"

[[record]]
query_smiles = "CNCCN(C)Cc1sc(-c2cccc(OC(F)(F)F)c2)nc1-c1ccc(OC)cc1"
target_under_test = "Protein arginine N-methyltransferase 1 (Homo sapiens)"
class_name = "0 (no)"

[[record]]
query_smiles = "CNCCN(C)Cc1sc(-c2cccc(OC)c2)nc1-c1ccc(OC)cc1"
target_under_test = "Protein arginine N-methyltransferase 1 (Homo sapiens)"
class_name = "1 (yes)"

[[record]]
query_smiles = "CNCCN(C)Cc1sc(-c2ccc(OC)cc2)nc1-c1ccc(OC)cc1.Cl"
target_under_test = "Protein arginine N-methyltransferase 1 (Homo sapiens)"
class_name = "1 (yes)"

[[record]]
query_smiles = "CNCCN(C)Cc1sc(-c2ccc(OC(F)(F)F)cc2)nc1-c1ccc(OC)cc1"
target_under_test = "Protein arginine N-methyltransferase 1 (Homo sapiens)"
class_name = "1 (yes)"

[[record]]
query_smiles = "N=C(N)c1ccc(-c2ccc(-c3ccc(C(=N)N)cc3)o2)cc1"
target_under_test = "Protein arginine N-methyltransferase 1 (Homo sapiens)"
class_name = "1 (yes)"

